# Tested on: COLO 205
# measurement notes: NCI tumour cell line growth inhibition, 48 h
Activity calls are given as the source filed them. Cut-off read from the data, not from the text of the source: active = GI50 up to about 1.1 µM and inactive = higher.
Outcomes: TRUE (active), FALSE (inactive)

>>> classification("CC1SC2=NC3=C(c4ccccc4C3=O)C(c3ccccc3Cl)N2C1=O (stereo unspecified)")
"FALSE"
>>> classification("Clc1cccc(Cl)c1C(Nc1nncs1)Nc1nncs1")
"FALSE"
>>> classification("COc1cc(/C=C/C=C2\\CCC/C(=C\\C=C\\c3ccc(O)c(OC)c3)C2=O)ccc1O")
"FALSE"
>>> classification("CC(=O)OCC(OC(C)=O)C(OC(C)=O)C(OC(C)=O)C(=O)CNn1c(-c2ccccc2)nc2ccc(Br)cc2c1=O (stereo unspecified)")
"FALSE"
>>> classification("Cc1ccc(C(=O)/C=C/c2ccccc2Cl)cc1")
"FALSE"
>>> classification("O=C1O[C@@H](c2ccccc2)C[C@@H]1CN1CCOCC1")
"FALSE"
>>> classification("CC1(C)CC23CC(C)(C)c4cccc(c42)OCc2ccc4ccc5ccc(nc5c4n2)COc2cccc1c23")
"FALSE"
>>> classification("CC1CSC(=S)N1C(=O)N1C(=S)SCC1C (stereo unspecified)")
"FALSE"
>>> classification("Nc1ccc2c(c1)N(C(=O)c1cc3cc(NC(=O)c4cc5ccccc5o4)ccc3[nH]1)CC2CCl (stereo unspecified)")
"TRUE"
>>> classification("CCOC(=O)N1CCC2(CC1)C[C@](C)(C(C)=O)C(C)O2 (stereo partly specified)")
"FALSE"
>>> classification("O=c1oc2c(O)c(O)c(O)c3c(=O)oc4c(O)c(O)cc1c4c23 [FLAVELLAGIC ACID]")
"FALSE"
>>> classification("O=S(=O)(/C=C/CS(=O)(=O)c1ccccc1)c1ccccc1")
"FALSE"
>>> classification("CCOC(=O)c1ccc(/N=C\\c2ccc(N(CCC#N)CCC#N)cc2)cc1")
"FALSE"
>>> classification("CCC(=O)OCc1ccc2oc(=O)c(C(=O)Oc3cncc(Cl)c3)cc2c1")
"FALSE"
>>> classification("COC(=O)[C@H](C)N1C(=O)N[C@@H](C(C)C)C1=O")
"FALSE"
>>> classification("Cn1c(=O)nc2n(-c3cccc(Cl)c3)c3ccccc3nc-2c1=O")
"FALSE"
>>> classification("C/C(C[n+]1ccccc1)=N\\N=C(N)N")
"FALSE"
>>> classification("COc1ccccc1C1c2cc3c(cc2OC(O)(CO)C1C(=O)O)OCO3.COc1ccccc1C1c2cc3c(cc2OC2(O)COC(=O)C12)OCO3 (stereo unspecified)")
"FALSE"
>>> classification("CN(/N=C/c1ccc(Cl)c(Cl)c1)C1=NCCN1")
"FALSE"
>>> classification("COc1oc(C2C/C(=C/C(C)=C/C(C)=C/C(C)=C/c3ccc([N+](=O)[O-])cc3)CO2)c(C)c(=O)c1C (stereo unspecified)")
"FALSE"
>>> classification("CCOP(=O)(OCC)C(C)(C)OC(=O)NC#N")
"FALSE"

====

# Tested on: TK-10
# measurement notes: NCI tumour cell line growth inhibition, 48 h
The source made the active and inactive calls. Cut-off read from the data, not from the text of the source: active = GI50 up to about 1.1 µM and inactive = higher.
property name: GI50

>>> observed_value("C=C1C(=O)O[C@@H]2/C=C(/C)[C@@H](OC(C)=O)C/C=C(\\C)C(O)[C@@H](OC(=O)/C(C)=C\\C)C12 (stereo not given in full)")
"68.7 µM (inactive)"
>>> observed_value("O=C(/C=C/c1ccccc1)Oc1ccc(C(=O)/C=C/c2ccccc2)cc1")
"14.5 µM (inactive)"
>>> observed_value("O=C1NC(O)n2c(=O)[nH]c(=O)n21 (stereo not given)")
"> 100 µM (inactive)"
>>> observed_value("CN(/N=C/c1ccc(Cl)c(Cl)c1)C1=NCCN1")
"46.2 µM (inactive)"
>>> observed_value("COc1ccc(C(=O)/C=C/c2ccc(OCCSCCCCCCCCCCSCCOc3ccc(/C=C/C(=O)c4ccc(OC)cc4)cc3)cc2)cc1")
"> 100 µM (inactive)"
>>> observed_value("O=[N+]([O-])CCc1cccc([N+](=O)[O-])c1")
"> 100 µM (inactive)"
>>> observed_value("C#CCNC(=O)NC(CCCNC(=O)OCc1ccccc1)C(=O)OCc1ccccc1 (stereo not given)")
"> 100 µM (inactive)"
>>> observed_value("CN(CCc1ccc(N)cc1)[C@H]1CCCC[C@H]1N1CCCC1")
"> 100 µM (inactive)"
>>> observed_value("CC1(C)CC(C2CC(C)(C)CC(C)(C)[C@H]2O)[C@@H](O)C(C)(C)C1 (stereo not given in full)")
"> 100 µM (inactive)"
>>> observed_value("CCOC1C(Br)Cn2c(=O)c3cc4ccccc4cc3c(=O)n2C1C (stereo not given)")
"> 100 µM (inactive)"

====

# Tested on: SW-620
# measurement notes: NCI tumour cell line growth inhibition, 48 h
Activity calls are given as the source filed them. No stated cut-off is given here; in the data, active = GI50 up to about 1.1 µM and inactive = higher.
property name: GI50

>>> observed_value("Clc1ccccc1CN1COc2c(cc(Cl)c3cccnc23)C1")
"5.01 µM (inactive)"
>>> observed_value("COc1cc(CNC2c3cc4c(cc3C(c3cc(OC)c(OC)c(OC)c3)[C@H]3C(=O)OCC23)OCO4)cc(OC)c1OC (some centres not stated)")
"0.416 µM (active)"
>>> observed_value("CNC(=O)OCC1=C(COC(=O)NC)C(C)N(c2ccc(OC)cc2)C1 (configuration not stated)")
"> 100 µM (inactive)"
>>> observed_value("CC1(C)CC23CC(C)(C)c4cccc(c42)OCc2ccc4ccc5ccc(nc5c4n2)COc2cccc1c23")
"> 50 µM (inactive)"
>>> observed_value("Nc1c(-c2ccccc2-c2c(N)[n+]([O-])c3ccccc3[n+]2[O-])[n+]([O-])c2ccccc2[n+]1[O-]")
"8.45 µM (inactive)"
>>> observed_value("CCCCCCCCCCCCCCCCCCOCC(C[N+]1(C)CCC(O)CC1)OCC (configuration not stated)")
"5.48 µM (inactive)"
>>> observed_value("COc1cc(C2c3cc4c(cc3OC(NNS(=O)(=O)c3ccc(C)cc3)C2C)OCO4)cc(OC)c1OC (configuration not stated)")
"1.01 µM (active)"
>>> observed_value("CC(=O)N1c2ccccc2C2=CC3C4C(=O)N(c5ccccc5)C(=O)C4C21C1C(=O)N(c2ccccc2)C(=O)C31 (configuration not stated)")
"31.2 µM (inactive)"
>>> observed_value("CC1(C)CC(C2CC(C)(C)CC(C)(C)[C@H]2O)[C@@H](O)C(C)(C)C1 (some centres not stated)")
"> 100 µM (inactive)"
>>> observed_value("CC1CCC2C(C)(C)CC3(C)CCC1C23O (configuration not stated)")
"16 µM (inactive)"
>>> observed_value("COc1cc(NS(C)(=O)=O)ccc1NCc1c2ccccc2nc2ccccc12")
"26.7 µM (inactive)"
>>> observed_value("Cc1cccc(C)c1NC(=O)CCCC(=O)C1CCC/C1=N\\NC(=O)C(=O)NN (configuration not stated)")
"> 100 µM (inactive)"
>>> observed_value("Cc1nc(Nc2ccccc2)sc1C(=O)CC(=O)C(=O)Nc1c(C(C)C)cccc1C(C)C")
"> 100 µM (inactive)"
>>> observed_value("CN1C2CCC1CC(CCOC(c1ccc(F)cc1)c1ccc(F)cc1)C2 (configuration not stated)")
"19.4 µM (inactive)"
>>> observed_value("CC(=O)OC1CC[C@]2(C)C3CC[C@@]4(C)C(CCC4[C@H](C)CCCC(C)C)[C@@H]3CCC2(Br)C1 (some centres not stated)")
"9.42 µM (inactive)"
>>> observed_value("Cc1ccc2c(c1)CN(C(=O)CCC(=O)OCc1ccccc1)c1ccc(C)cc1CN2C(=O)CCC(=O)OCc1ccccc1")
"> 100 µM (inactive)"
>>> observed_value("c1ccc2c(c1)Nc1ccccc1[P+]21c2ccccc2Nc2ccccc21")
"0.279 µM (active)"
>>> observed_value("COc1ccc(C(=O)C(CC2C(=O)CC(C)(C)C(C(=O)C(=O)Nc3c(C)cccc3C)C2=O)c2ccc(OC)cc2)cc1 (configuration not stated)")
"> 100 µM (inactive)"
>>> observed_value("O=C1CC(=O)NC(NN2C(=O)/C(=C/c3ccc(Cl)c(Cl)c3)N=C2c2ccccc2)=N1")
"30.4 µM (inactive)"
>>> observed_value("O=c1[nH]c(N/N=C\\C(O)C(O)C(O)C(O)CO)nc2ccccc12 (configuration not stated)")
"> 100 µM (inactive)"
>>> observed_value("O=C1N=C2SC(=S)N=C(S)N2NC12c1ccccc1-c1ccccc12")
"> 10 µM (inactive)"
>>> observed_value("CSc1nc(Nc2cccc(C(F)(F)F)c2)c2c(N)nn(C)c2n1")
"> 100 µM (inactive)"
>>> observed_value("c1ccc(COc2cccc3ccc[n+](Cc4ccccc4)c23)cc1")
"9.75 µM (inactive)"
>>> observed_value("CC1=C(C(=O)N(C)c2ccc(Cl)c(C(=O)OC(C)C)c2)SCCO1")
"> 100 µM (inactive)"
>>> observed_value("CCOC(=O)/C=C/c1ccccn1")
"> 100 µM (inactive)"
>>> observed_value("C#CC[N+](C)(CC#C)CC#C")
"> 100 µM (inactive)"
>>> observed_value("C1=CCN(c2ccccc2)CC1")
"16.3 µM (inactive)"
>>> observed_value("COC(=O)C1CCC(=O)N1CN(C(C)=O)c1cccc(O)c1 (configuration not stated)")
"> 100 µM (inactive)"
>>> observed_value("CNC(=O)N(CCCCC(NC(C)=O)C(=O)NCc1ccccc1)Cc1ccccc1 (configuration not stated)")
"> 100 µM (inactive)"
>>> observed_value("COC(=O)[C@H](C)N1C(=O)N[C@@H](C(C)C)C1=O")
"> 100 µM (inactive)"
>>> observed_value("Oc1c(CN2CCN(c3ccccc3)CC2)cc(Br)c2cccnc12")
"1.4 µM (inactive)"
>>> observed_value("CCc1ccccc1-n1c2nc(=O)n(C)c(=O)c-2nc2ccccc21")
"13.8 µM (inactive)"
>>> observed_value("C#CCNC(=O)NC(CCCNC(=O)OCc1ccccc1)C(=O)OCc1ccccc1 (configuration not stated)")
"> 100 µM (inactive)"
>>> observed_value("CCOC(=O)[C@H]1CSC[C@@H](C(=O)OC)N1")
"> 100 µM (inactive)"
>>> observed_value("Cc1ccc(-c2n[nH]c(=O)n2N)cc1")
"> 100 µM (inactive)"
>>> observed_value("CN(N=O)c1nc2c(C(N)=O)ncn2s1")
"46.9 µM (inactive)"
>>> observed_value("O=C1N/C(=C\\[N+](=O)[O-])c2ccccc21")
"> 100 µM (inactive)"
>>> observed_value("COc1ccccc1C1c2cc3c(cc2OC(O)(CO)C1C(=O)O)OCO3.COc1ccccc1C1c2cc3c(cc2OC2(O)COC(=O)C12)OCO3 (configuration not stated)")
"> 100 µM (inactive)"
>>> observed_value("COc1ccc2c(c1)C(CCN)C(=O)N2 (configuration not stated)")
"> 100 µM (inactive)"
>>> observed_value("CCOc1cc2c(cnc3c4cc(OC)c(OC)cc4ccc23)cc1OC")
"> 100 µM (inactive)"
>>> observed_value("CCC(=O)OCc1ccc2oc(=O)c(C(=O)Oc3cncc(Cl)c3)cc2c1")
"> 100 µM (inactive)"
>>> observed_value("Cc1oc2nc1C(=O)NCc1nc(cs1)C(=O)N[C@H](C(C)C)c1nc(cs1)C(=O)N[C@H]2C")
"> 100 µM (inactive)"
